tested.system: T1, HLA-A*0201 loaded with the Carcinoembryonic antigen (CEA)-derived … peptide (biotin on the C-terminal biotinylation tag)
T1 construct: Soluble, biotinylated, immobilised on a streptavidin chip
test.summary: Biacore SPR
Listing of recorded koff by entry.
measured.metric: koff

binder="SEQ ID NO 131 (receptor, mutated soluble two domain ILT-2; also called c132) MGHLPKPTLWAEPGSVITMDQPVTLRCQGGQETQEYRLYREKKTAPWITRIPQELVKKGQFPIPSITWEHAGRYRCYYGSDTSQWSASSDPLELVVTGVYIKPTLSAQPSPVVNSGGNVTLQCDSPFQADGFILCKEGEDEHPQCLNSQPHARGSSRAIFSVGPVSPSRRWWYRCYAYMSWSPYEWSLPSDLLELDVDG" observed_value="≤ 2 s⁻¹"
binder="SEQ ID NO 60 (receptor, mutated soluble two domain ILT-2) MGHLPKPTLWAEPGSVITMDQPVTLRCQGGQETQQYRLYREKKTAPWITRIPQELVKKGQFPIPSITWEHAGRYRCYYGSDTRQWSASSDPLELVVTGVYIKPTLSAQPSPVVNSGGNVTLQCDSQVAFDGFILCKEGEDDHPQCLNSQPHARGSSRAIFSVGPVSPSRRWRYRCYAYDSNSPYEWTRGSDLLELDVDG" observed_value="≤ 2 s⁻¹"
binder="SEQ ID NO 37 (receptor, mutated soluble two domain ILT-2) MGHLPKPTLWAEPGSVITMDQPVTLRCQGGQETQEYRLYREKKTAPWITRIPQELVKKGQFPIPSITWEHAGRYRCYYGSDTAGRSESSDPLELVVTGVYIKPTLSAQPSPVVNSGGNVTLQCDSQVAFDGFILCKEGEDEHPQCLNSQPHARGSSRAIFSVGPVSPSRRWWYRCYAYPAWTPYEWSLPSDLLELDVDG" observed_value="≤ 2 s⁻¹"
